Sequence of the target: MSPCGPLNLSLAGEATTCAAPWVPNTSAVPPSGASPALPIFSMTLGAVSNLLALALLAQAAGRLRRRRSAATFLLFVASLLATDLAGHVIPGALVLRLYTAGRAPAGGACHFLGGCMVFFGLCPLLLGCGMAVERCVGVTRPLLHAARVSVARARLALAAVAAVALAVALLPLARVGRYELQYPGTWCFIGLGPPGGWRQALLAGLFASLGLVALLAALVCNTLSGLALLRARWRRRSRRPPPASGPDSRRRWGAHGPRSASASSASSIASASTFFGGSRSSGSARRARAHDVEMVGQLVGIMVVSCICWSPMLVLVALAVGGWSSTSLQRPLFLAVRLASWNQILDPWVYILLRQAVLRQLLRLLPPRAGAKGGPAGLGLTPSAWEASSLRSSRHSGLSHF
Examples of compounds with documented Ki follow.

Past entries and their recorded results:
Cc1ccc2c(c1)[C@@H]1CCC[C@@H]1[C@H](c1ccc(C(=O)O)cc1)N2C [EXAMPLE 30] :: > 500 nM
CC(C)c1ccc2c(c1)[C@@H]1CCC[C@@H]1[C@H](c1ccc(C(=O)O)cc1)N2 [EXAMPLE 18] :: 100 to 500 nM
Cc1cc2c(cc1Cl)N[C@@H](c1ccc(C(=O)O)cc1)[C@H]1CCC[C@@H]21 [EXAMPLE 29] :: > 500 nM

-- ask Given the compound Cc1ccc2c(c1)[C@@H]1CCC[C@@H]1[C@H](c1ccc(C(=O)O)cc1)N2 (racemic) [EXAMPLE 04] , what is its reported Ki?
-- reply 100 to 500 nM

-- ask Given the compound COc1ccc2c(c1)[C@@H]1CCC[C@@H]1[C@@H](c1c(C)cc(C(=O)O)cc1C)N2 [EXAMPLE 57] , what is its reported Ki?
-- reply < 100 nM

-- ask Given the compound Cc1ccc2c(c1)[C@@H]1CCC[C@@H]1[C@H](c1cc(C(=O)O)nn1C)N2 [EXAMPLE 62] , what is its reported Ki?
-- reply > 500 nM

-- ask Given the compound COc1ccc2c(c1)[C@]1(C)CCC[C@@H]1[C@H](c1ccc(C(=O)O)cc1)N2 [EXAMPLE 69] , what is its reported Ki?
-- reply 100 to 500 nM

-- ask Given the compound CCc1cc(C(=O)O)ccc1[C@H]1Nc2ccc(OC)cc2[C@@H]2CCC[C@H]12 [EXAMPLE 55] , what is its reported Ki?
-- reply 100 to 500 nM

-- ask Given the compound CCCc1ccc2c(c1)[C@@H]1CCC[C@@H]1[C@H](c1ccc(C(=O)O)cc1)N2 [EXAMPLE 12] , what is its reported Ki?
-- reply > 500 nM

-- ask Given the compound O=C(O)c1ccc([C@@H]2Nc3ccc(Cl)cc3[C@@H]3CCC[C@@H]32)cc1 (single isomer, unassigned) [EXAMPLE 06a] , what is its reported Ki?
-- reply < 100 nM

-- ask Given the compound Cc1ccc2c(c1)[C@@H]1CCC[C@@H]1[C@H](c1ccc(C(=O)O)cc1C)N2 (single isomer, unassigned) [EXAMPLE 37a] , what is its reported Ki?
-- reply < 100 nM

-- ask Given the compound Cc1ccc2c(c1)[C@@H]1CCC[C@@H]1[C@H](c1ccc(C(=O)O)c(C)c1)N2 [EXAMPLE 36] , what is its reported Ki?
-- reply > 500 nM
